Molecular target: EGFR L858R (Homo sapiens (Human), UniProt P00533, L858R)
Sequence (P00533 25-1210 L858R): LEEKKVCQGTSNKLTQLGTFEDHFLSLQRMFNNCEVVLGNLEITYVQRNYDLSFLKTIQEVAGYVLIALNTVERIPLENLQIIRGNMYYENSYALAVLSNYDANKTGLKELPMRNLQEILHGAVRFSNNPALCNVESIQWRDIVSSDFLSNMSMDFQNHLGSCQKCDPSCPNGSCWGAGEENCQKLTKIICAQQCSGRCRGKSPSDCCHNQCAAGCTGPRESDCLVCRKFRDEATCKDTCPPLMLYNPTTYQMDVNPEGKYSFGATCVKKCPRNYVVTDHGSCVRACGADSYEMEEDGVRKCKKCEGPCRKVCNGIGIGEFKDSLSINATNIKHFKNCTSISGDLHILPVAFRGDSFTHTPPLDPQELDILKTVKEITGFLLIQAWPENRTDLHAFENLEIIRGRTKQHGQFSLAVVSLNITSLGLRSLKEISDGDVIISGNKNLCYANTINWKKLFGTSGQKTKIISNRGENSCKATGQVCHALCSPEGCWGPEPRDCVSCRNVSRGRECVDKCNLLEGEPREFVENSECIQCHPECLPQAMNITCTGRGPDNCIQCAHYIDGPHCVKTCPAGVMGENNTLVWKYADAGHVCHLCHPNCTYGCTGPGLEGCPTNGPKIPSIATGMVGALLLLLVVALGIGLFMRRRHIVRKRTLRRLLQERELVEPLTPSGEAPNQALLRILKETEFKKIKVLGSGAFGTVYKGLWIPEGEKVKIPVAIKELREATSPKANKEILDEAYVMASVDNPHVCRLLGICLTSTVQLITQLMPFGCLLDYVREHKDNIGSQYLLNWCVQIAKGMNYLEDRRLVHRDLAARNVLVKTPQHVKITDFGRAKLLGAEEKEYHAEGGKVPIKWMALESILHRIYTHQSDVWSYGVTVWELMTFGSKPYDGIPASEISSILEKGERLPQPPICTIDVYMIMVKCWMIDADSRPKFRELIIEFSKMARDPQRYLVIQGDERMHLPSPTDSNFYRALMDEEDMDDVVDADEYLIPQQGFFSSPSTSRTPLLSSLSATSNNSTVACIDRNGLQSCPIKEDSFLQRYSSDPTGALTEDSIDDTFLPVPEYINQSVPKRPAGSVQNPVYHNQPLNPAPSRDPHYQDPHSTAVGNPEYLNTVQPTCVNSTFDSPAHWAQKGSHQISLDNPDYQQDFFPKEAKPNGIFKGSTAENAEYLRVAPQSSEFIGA
Assay: Biochemical EGFR inhibition assay, EGFR L858R
Settings: Caliper mobility shift; 1.0 mM ATP or ATP Km; read-out: Enz EGFR_L858R IC50
Response field label takes condition met when IC50 is strictly below 2 nM and condition not met in all other cases.

Consider COc1cc2ncnc(-c3cn(C)nc3-c3ccccc3)c2nc1O[C@H](C)c1cscn1 (single isomer, unassigned) . Does its IC50 lie strictly below 2 nM? condition met

Now the compound COc1cc2ncnc(-c3cn(C)nc3-c3ccccc3)c2cc1NC(=O)c1cn(C(C)C)nc1C condition met

Likewise for Cn1cc(-c2ccc3c(-c4c[nH]nc4-c4cccc(Cl)c4)ncnc3c2)cn1 ? condition met

Note, next up: COc1cc2ncnc(-c3cn(C)nc3-c3ccccc3)c2cc1[C@@H](C)O (single isomer, unassigned) condition not met

And for COc1cc2ncnc(-c3cn(C)nc3-c3ccccc3F)c2nc1NC(=O)[C@@]12C[C@@H]1CN(C)C2 ? condition not met

Next up: CCOc1cc2ncnc(-c3cn(C)nc3-c3ccccc3)c2nc1NC(=O)C12CC(N(C)C)(C1)C2 condition not met

Another compound: COc1cc2ncnc(-c3cn(C)nc3-c3ccccc3)c2nc1O[C@H](C)c1cn(C)nn1 condition met

Okay, and COc1cc2ncnc(-c3cn(C)nc3-c3ccccc3)c2cc1C(C)(C)O ? condition not met

Now consider COc1cc2ncnc(-c3cn(C)nc3-c3ccccc3)c2cc1NC(=O)[C@@H]1CCCN1C (single isomer, unassigned) and answer again. condition not met

Input COc1cc2ncnc(-c3cn(C)nc3-c3ccccc3)c2cc1NC(=O)c1ccc(C)nc1 condition not met

Do the same for COc1cc2ncnc(-c3cn(C)nc3-c3ccccc3)c2cc1NC(=O)C1(C)CCCO1 (stereo not drawn) please condition not met

Next entry: COc1cc2ncnc(-c3cn(C)nc3-c3c(F)cccc3F)c2nc1NC(=O)[C@@]12C[C@@H]1CN(C)C2 (single isomer, unassigned) condition not met

Item: COc1cc2ncnc(-c3cn(C)nc3-c3ccccc3)c2cc1O[C@@H]1CCOC1 condition not met

Ok, now CCOc1cc2ncnc(-c3cn(C(C)C)nc3-c3ccccc3)c2cc1[C@H](C)O (single isomer, unassigned) condition met

Record: COc1cc2ncnc(-c3cn(C)nc3-c3ccccc3)c2nc1O[C@H](C)c1nccs1 condition met

Next compound up: COc1cc2ncnc(-c3cn(C)nc3-c3ccccc3)c2cc1NC(=O)C1(c2cccnc2)CC1 condition not met

Can you handle COc1cc2ncnc(-c3cn(CC(F)F)nc3-c3ccccc3)c2cc1NC(=O)c1cnsc1 next? condition met

Would you mind doing COc1cc2ncnc(-c3cn(C)nc3-c3ccccc3)c2cc1OC1COCCOC1 as well? condition not met

Let us now turn to COc1cc2ncnc(-c3cn(C)nc3-c3ccccc3)c2nc1-c1ccc2c(c1)CN(C)C2=O condition met

Likewise for COc1cc2ncnc(-c3cn(C)nc3-c3ccccc3F)c2cc1NC(=O)[C@]12COC[C@H]1C2 (single isomer, unassigned) ? condition not met

Thanks! And COc1cc2ncnc(-c3cn(CCO)nc3-c3ccccc3)c2cc1NC(=O)C12CC(C1)C2 ? condition not met

Another compound to look at: COc1cc2ncnc(-c3cn(C)nc3-c3ccccc3)c2cc1NC(=O)C1CC(F)(F)C1 condition not met

Same question for CCn1cc(-c2ncnc3cc(OC(F)F)c(NC(=O)C4CC4)cc23)c(-c2ccccc2)n1 please. condition met

And what about the compound CCC(=O)Nc1cc2c(-c3cn(C)nc3-c3ccccc3)ncnc2cc1-c1ncccn1 ? condition met

Same for CCn1cc(-c2ncnc3cc(OC)c(NC(=O)[C@@]45COC[C@@H]4C5)cc23)c(-c2ccccc2)n1 condition met

Please give the result for COCCOc1cc2ncnc(-c3cn(CC(F)F)nc3-c3ccccc3)c2cc1OC too. condition met

Check COc1cc2ncnc(-c3cn(CC(F)F)nc3-c3ccccc3)c2cc1C1(O)CC1 too. condition met

# repeat for CN1C[C@H]2C[C@@]2(C(=O)Nc2nc3c(-c4cn(C)nc4-c4ccccc4)ncnc3cc2OC2CC2)C1 condition not met

Same thing, different compound: COc1cc2ncnc(-c3cn(CC(F)F)nc3-c3ccccc3)c2cc1NC(=O)C(F)F condition met

Cool, now COc1cc2ncnc(-c3cn(CC(F)F)nc3-c3ccccc3)c2nc1NC(=O)c1ccc(C2CC2)nc1 condition met
